Tested System: T1, hiR2-FL-K536A-T7 (human, UniProt Q6PJF5 1-856)
T1 construct: on MEF-DKO cells
T1 sequence: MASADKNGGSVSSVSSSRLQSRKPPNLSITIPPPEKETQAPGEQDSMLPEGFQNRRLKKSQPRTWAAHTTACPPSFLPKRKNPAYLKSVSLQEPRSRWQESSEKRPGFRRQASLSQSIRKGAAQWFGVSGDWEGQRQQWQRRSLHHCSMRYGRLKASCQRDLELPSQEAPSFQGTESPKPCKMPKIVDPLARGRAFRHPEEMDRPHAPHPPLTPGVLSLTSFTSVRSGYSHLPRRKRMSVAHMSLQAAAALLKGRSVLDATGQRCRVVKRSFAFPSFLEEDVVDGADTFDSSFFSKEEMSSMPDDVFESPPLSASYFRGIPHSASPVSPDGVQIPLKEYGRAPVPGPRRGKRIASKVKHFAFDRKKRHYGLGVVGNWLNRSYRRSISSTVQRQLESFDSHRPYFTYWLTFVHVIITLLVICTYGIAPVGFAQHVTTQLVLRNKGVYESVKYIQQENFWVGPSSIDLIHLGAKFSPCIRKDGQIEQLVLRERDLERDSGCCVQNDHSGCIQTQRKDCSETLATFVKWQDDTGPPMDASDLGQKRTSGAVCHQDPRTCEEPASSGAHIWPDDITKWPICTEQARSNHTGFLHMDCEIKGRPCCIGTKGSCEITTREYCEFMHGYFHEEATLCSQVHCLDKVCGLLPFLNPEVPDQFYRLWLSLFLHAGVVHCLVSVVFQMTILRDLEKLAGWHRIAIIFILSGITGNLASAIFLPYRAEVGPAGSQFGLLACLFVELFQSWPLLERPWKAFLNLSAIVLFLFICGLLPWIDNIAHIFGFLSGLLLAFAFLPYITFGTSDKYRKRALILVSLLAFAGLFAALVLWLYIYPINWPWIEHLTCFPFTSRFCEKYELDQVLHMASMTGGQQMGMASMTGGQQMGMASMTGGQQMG
Procedure Details: FACS on MEF-DKO cells expressing the variant, 3 µg/ml antibody
Readout Type: loss of binding vs wild type

[in] Returns the measured loss of binding vs wild type for the input binder. Input: antibody 16 (antibody, V domains shown, mouse IgG, kappa light chain; also called clone #16; purified antibody 16) VH: QVTLKESGPGILQPSQTLSLTCSFSGFSLSTFALGVGWIRQPSGRGLEWLAHIWWDDDKYYNPALKSRLTISKDTSKNHVFLKIANVDTADTATYYCARITTYYYGMDYWGQGTSVTVSS VL: DIVLSQSPATLSVTPGDSVSLFCRASQSIGNHLHWYQQESHASPRLLIKYASQSISGIPSRFSGSGSGTDFTLSINSVETEDFGMYFCQQSYNWPLTFGAGTKLELK
[out] ≥ 60%

[in] Returns the measured loss of binding vs wild type for the input binder. Input: antibody 43 (antibody, V domains shown, mouse IgG, kappa light chain; also called clone #43; purified antibody 43) VH: QVALKESGPGILQPSQTLSLTCSFSGFSLSTFGMGVGWIRQSSGKGLEWLANIWWDDDKYYNPALKSRLTISKDASKNQAFLKIANVDTADTATYYCARIGNYGSNYWYFDVWGTGTTVTVSS VL: QIVLTQSPAIMSASPGERVTMTCSANSRISYMYWYQQKPGSSPRLLIYDTSNLASGVPVRFSGSGSGTSYSLTISRMEAEDAATYNCQQWSSYPLTFGAGTKLELK
[out] ≥ 60%

[in] Returns the measured loss of binding vs wild type for the input binder. Input: antibody 5 (antibody, V domains shown, mouse IgG, kappa light chain; also called clone #5; purified antibody 5) VH: QVTLKESGPGILQPSQTLSLTCSFSGFSLSTFGMGVGWIRQPSGKGLEWLAHIWWDDEKYYNSALKSRLTISKATSKNQAFLKIANVDTADTATYYCARISNYGSNYWYFNVWGTGTTVTVSS VL: QVVLTQSPALMSASPGEKVTMTCSAGSSVSCMYWYQQKPGSSPRVLIYDTSNLASGVPARFTGSGSGTSYSLTISRMEAEDAASYYCQQWNSYPLTFGAGTKLELK
[out] ≥ 95%

[in] Returns the measured loss of binding vs wild type for the input binder. Input: antibody 48 (antibody, V domains shown, mouse IgG, kappa light chain; also called clone #48; purified antibody 48) VH: QVQLQQSGTELVRPGTSVKVSCKASGYAFTNYLIEWVKQRPGQGLEWIGVINPGSGFTKYNEKFKGKATLTADKSSSTVYMHLSSLTSEDSAVYFCARGLYRAMDYWGQGTSVTVSS VL: DIQMTQSPASQSASLGESVTITCLASQTIATWLAWYQQKPGKSPQLLIYGATTLADGVPSRFSGGGSGTKFSFKISSLQAEDFVSYYCQQLYSTPYTFGGGTKLEIK
[out] ≥ 30%

[in] Returns the measured loss of binding vs wild type for the input binder. Input: antibody 3 (antibody, V domains shown, mouse IgG, kappa light chain; also called clone #3; purified antibody 3) VH: QVTLKESGPGILQPSQTLSLTCSFSGFSLTTFAMGIGWVRQPSGKGLEWLAHIWWDGEKYNNPVLKSRLTISKDTSKNQVFLRIANVDTPDTATYYCARISSIYYIIDNWGQGTSVTVSS VL: DIVLTQSPATLSVTPGHSVSLSCRASQSISNNLHWYQKKSHESPRLLIKYVSQSISGIPSRFSGSGSGTDFTLSINSVETEDFGMYFCQQSYNWPLTFGAGTKLELK
[out] ≥ 60%
